Origin of the recorded values: the CheMixHub drug solubility set

Hi there, I'd appreciate the recorded solubility (g/100 g solution) for every entry that follows.
TEST NAME: xn = mol fraction of the nth substance listed, in the solute-free solvent
APPLIED CONDITIONS: 318.15 K; x2 = 0.3

// known answers, use as guide
CC1(C)SC2C(NC(=O)C(NC(=O)N3CCNC3=O)c3ccccc3)C(=O)N2C1C(=O)O (centres undefined) + CO + CC(C)O	0.611
CCOC(=O)C1=CC2(CC)CCCN3CCc4c(n1c1ccccc41)C32 (centres undefined) + CCO + O	0.238
CN1CCN(C(=O)OC2c3nccnc3C(=O)N2c2ccc(Cl)cn2)CC1 (centres undefined) + CC(C)=O + O	0.545
CCCCN1CCCCC1C(=O)Nc1c(C)cccc1C.Cl.O (centres undefined) + CCO + O	9.56
O=c1ccc2ccccc2o1 + CO + O	19.9

Could I get solubility (g/100 g solution) for every one of these entries?
1. CN1CCN(C(=O)OC2c3nccnc3C(=O)N2c2ccc(Cl)cn2)CC1 (centres undefined) + C1CCOC1 + O
2. CCCCN1CCCCC1C(=O)Nc1c(C)cccc1C.Cl.O (centres undefined) + CO + O
3. CN1CCN(C(=O)OC2c3nccnc3C(=O)N2c2ccc(Cl)cn2)CC1 (centres undefined) + CC#N + O

Found:
1.13
14.7
1.26

Lookup: Return value of solubility (g/100 g solution) for input CN1CCN(C(=O)OC2c3nccnc3C(=O)N2c2ccc(Cl)cn2)CC1 (centres undefined) + CCO + O , no commentary.
Found: 0.474
